B1: Azoarcus group I ribozyme (parent)
chain: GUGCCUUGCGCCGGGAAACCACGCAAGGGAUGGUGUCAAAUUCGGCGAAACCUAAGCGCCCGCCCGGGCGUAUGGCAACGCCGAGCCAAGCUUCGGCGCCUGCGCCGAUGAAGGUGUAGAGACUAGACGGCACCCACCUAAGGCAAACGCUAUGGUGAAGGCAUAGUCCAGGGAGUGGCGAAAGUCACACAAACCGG

# Variants of: B1
# assay name: reverse-splicing fitness (ratio to wild type); higher = more active; in vitro selection; Mg2+ level not given
property measured: reverse-splicing fitness

Guide cases for reverse-splicing fitness, answers given:
| mutation annotation | reverse-splicing fitness |
| --- | --- |
| C82A A111G C169A | 0.00855 |
| C82G A120U C150G U176G | 0.00297 |
| C82A A111U A120C A145C C169G | 0.01 |
| C82U A111U A120C A145C C150G C169U U176G | 0.00477 |
| A111C A120G A145U C150G C169U U176A | 0.0111 |
| A120U A145C C150G C169G U176C | 0.00281 |
| C82A A111G A120C A145C C150U U176A | 0.0118 |
| C82U A145G | 0.63 |
| A120U C150A C169A U176C | 0.00333 |
| C82A A111G A120U A145U C150G C169U U176C | 0.00353 |

Respectfully, I request reverse-splicing fitness for each entry included below.
1. A111C A120C C150U C169A U176C
2. C82A A120U A145C U176A
3. A111U A120C A145C C150U C169A
4. C82U A120C A145G C150U C169G U176C
5. C82A A111U A120U A145G U176C
6. A111C A120U A145C C169U
7. A120G A145G C150A C169G U176G

Resp:
0.0142
0.0307
0.00788
0.0155
0.0114
0.0701
0.00637

Hello, I would appreciate it if you could give reverse-splicing fitness for each entry below.
1. C82A A120G A145U C150A C169G
2. C82G A120C A145C C150G C169U U176A
3. C82G A111C A145C U176A

Resp:
0.00799
0.00765
0.126

For each of the items listed, what is its reverse-splicing fitness?
1. A111U A120G A145C C150A U176A
2. C82G A120C A145G C150U C169A U176G
3. C82G A120G A145C C150G C169U
4. A120G A145U C169U U176A

Resp:
0.00785
0.0065
0.00976
0.174

Could you tell me reverse-splicing fitness for each of these variants? They are listed below.
1. C82G A111G C169G U176A
2. C82G A111G C150U C169U
3. C82A A111G A120U A145U C150G C169A
4. C82U A111G A120C C150A C169G U176A
5. C82A A120G C150A C169U U176G
6. A111G A120G A145C C150U C169G U176G

Resp:
1. 0.0197
2. 0.0123
3. 0.00373
4. 0.0237
5. 0.00815
6. 0.00498

Look up reverse-splicing fitness for the entries below, preserving their order.
1. C82G A145U C169G U176C
2. A111C A120C C150G C169A

Resp:
1. 0.0115
2. 0.00914

Go through the items and report each one's reverse-splicing fitness.
1. C82A A111C A145G C150U C169A U176G
2. C82U A111U A120U A145U C150U C169U U176C
3. C82A A111G A120C A145C C150U C169G
4. A111C A120U A145C C169G U176G
5. C82G A111G A120G C150U C169A U176A
6. C82A A120C A145C C150U U176A
7. C82U A145U C150A C169U U176G

Resp:
0.00833
0.00392
0.00854
0.0018
0.0193
0.0172
0.00535

For each entry beneath this line, provide reported reverse-splicing fitness.
1. A111U A120C A145G U176A
2. C82U A111U A120U C150A U176G
3. A111C A120U A145C C150A C169A U176A
4. C82A A111G A145U C150U C169A U176C
5. C82A A111G A120U A145G C150U C169A
6. C82U A111G A120G A145U C169U
7. C82U A111G A120C A145C C150G C169U

Resp:
[0.246, 0.00299, 0.00259, 0.0114, 0.00667, 0.0103, 0.00749]

Answer for every listed entry: what is its reverse-splicing fitness? The entries follow.
1. A111U C150U C169U U176A
2. C82G A120C C150U C169G U176G
3. C82G A111G A120G A145C C150A C169U U176G
4. C82A A111U C150U C169U U176A
5. A111G A120C C150G C169A U176A

Resp:
[0.0262, 0.0048, 0.00551, 0.0146, 0.00551]
